test system: K. pneumoniae 4105; assay: MIC against K. pneumoniae 4105; format: cell-based; conditions: Table 2; K. pneumoniae 4105, KPC-3, TEM-1, SHV-11; in combination with NXL-104
observable: MIC (µg/mL)

// below: answered compounds
| compound | MIC, µg/mL |
| --- | --- |
| CC(C)(O/N=C(\C(=O)N[C@@H]1C(=O)N2C(C(=O)[O-])=C(C[n+]3ccc4n3CCN4Cc3ccc(C(=N)N)cc3)CS[C@H]12)c1csc(N)n1)C(=O)O [Example 2] | 2.00 |
| CC(C)(O/N=C(\C(=O)N[C@@H]1C(=O)N2C(C(=O)[O-])=C(C[n+]3ccc4c(ccn4Cc4cc(C(=N)N)co4)c3)CS[C@H]12)c1csc(N)n1)C(=O)O [Example 6] | 1.00 |

P: CC(C)(O/N=C(\C(=O)N[C@@H]1C(=O)N2C(C(=O)[O-])=C(C[n+]3ccccc3)CS[C@H]12)c1csc(N)n1)C(=O)O [CAZ, ceftazidime, reference compound]
Q: CC(C)(O/N=C(\C(=O)N[C@@H]1C(=O)N2C(C(=O)[O-])=C(C[n+]3ccc4c(ccn4Cc4cc(C(=N)N)cs4)c3)CS[C@H]12)c1csc(N)n1)C(=O)O [Example 5]
Ask: Param metric = MIC; output whichever of P , Q has the minimum value. Provide the label of your selected option as the answer.
Result: Q
(Q: 1.00 µg/mL, P: 4.00 µg/mL)
